Entries annotated with measured cytotoxicity at 10 µM
test: Toxicity liver stage against HepG2, at 10uM; type: cell-based; parameters: test concentration 10 uM, cell line HepG2-A16-CD81EGFP; conditions: human, HepG2-A16-CD81EGFP cells; read-out: INHIBITION
readout type: cytotoxicity at 10 µM

In [3]: df
Out[3]:
                                    compound           readout_type  result_value
 0  NC(=O)c1cccc(CN2CCOC(Cn3cccn3)C2)c1 (stereo not given)  cytotoxicity at 10 µM        -2.69%
 1           Cc1ccc(CNc2ccn(CCc3ccncc3)n2)s1  cytotoxicity at 10 µM         21.8%
 2  Cc1nc(CC(=O)N2CCCC(n3ccnc3C(C)C)C2)cs1 (stereo not given)  cytotoxicity at 10 µM       -0.354%
 3  N#Cc1cccc(NC2CC(=O)N(CCCc3ccccc3)C2)n1 (stereo not given)  cytotoxicity at 10 µM         5.82%
 4  CCC(C)(CCO)NC(=O)c1ccon1 (stereo not given)  cytotoxicity at 10 µM         4.13%
 5  CN(C)CCOCC1CN(Cc2ccccn2)Cc2nnn(C)c21 (stereo not given)  cytotoxicity at 10 µM          5.5%
 6    CN(CCc1cn[nH]c1)Cc1nc(Cc2cccc(F)c2)no1  cytotoxicity at 10 µM        -1.53%
 7  CCS(=O)(=O)N1Cc2c(Cn3ccnc3)nn(C(C)C)c2C1  cytotoxicity at 10 µM         11.5%
 8  O=C(NCCC1=CCCCC1)C1CCN(c2ccc3nncn3n2)CC1  cytotoxicity at 10 µM        -2.96%
 9  Cc1nc(C2CCCN2C(=O)CN(C)Cc2ccccc2)no1 (stereo not given)  cytotoxicity at 10 µM       -0.803%
10            Cc1ccc2cc(CNCCCO)c(=O)[nH]c2c1  cytotoxicity at 10 µM        0.127%
11  CCN(C)C(=O)c1ccc(N2CCC(Oc3cccc(F)c3)CC2)nc1  cytotoxicity at 10 µM        -23.7%
12  COCCC(=O)N1CC[C@@H](N2CCOCC2)[C@@H]1Cc1ccccc1  cytotoxicity at 10 µM        -70.4%
13             O=C1COC2(CCN(Cc3ccco3)CC2)CN1  cytotoxicity at 10 µM        -1.49%
14  c1cncc(CCc2nc(C3CC3)nn2-c2ccc3c(c2)OCCO3)c1  cytotoxicity at 10 µM       -0.833%
15    COC(=O)CNC(=O)c1cc(-c2ccccc2)nc2ncnn12  cytotoxicity at 10 µM        -5.07%
16  O=C(c1ccc(-n2ccnc2)cc1)N1CCN(c2cnccn2)CC1  cytotoxicity at 10 µM        -5.63%
17  Cc1cnn(CC2CCCN2C(=O)CCc2cscn2)c1 (stereo not given)  cytotoxicity at 10 µM        -11.9%
18  Cc1nc(CN2CCCC(C)(CO)C2)no1 (stereo not given)  cytotoxicity at 10 µM         5.89%
19  CC(C)C[C@@H]1N[C@H](C(=O)NC2CCOCC2)Cc2c[nH]c3cccc1c23  cytotoxicity at 10 µM         8.24%
20              COc1ccc(CN2CCC(O)CC2)c(OC)c1  cytotoxicity at 10 µM        -9.18%
21          COCCN1CCn2cc(CN(C)Cc3ccco3)nc2C1  cytotoxicity at 10 µM        -74.9%
22  Cc1nn(C)c(C)c1C1CCCN1CC(=O)Nc1cc(C(C)C)no1 (stereo not given)  cytotoxicity at 10 µM         2.07%
23                   OCc1cn(Cc2cccc(F)c2)nn1  cytotoxicity at 10 µM         8.95%
24  CCC(C)(O)CNC(=O)Nc1ccc(C)cc1Br (stereo not given)  cytotoxicity at 10 µM        -9.95%
25          Cc1ncnc2c1CCN(C(=O)c1ccncc1F)CC2  cytotoxicity at 10 µM        -71.1%
26  COC(=O)CC(c1ccc(OC)c(O)c1)c1oc(C)cc(=O)c1O (stereo not given)  cytotoxicity at 10 µM       -0.634%
27  N#Cc1nccnc1N1CCC(Cc2ccccc2)C1 (stereo not given)  cytotoxicity at 10 µM        -8.68%
28           CSCc1cccc(S(=O)(=O)N2CCCCCC2)c1  cytotoxicity at 10 µM         6.91%
29  O=C(CC1CC1)N(Cc1cccnc1)CC1CCN(C2CCCC2)CC1  cytotoxicity at 10 µM         5.95%
30  COc1ncccc1C1CC(=O)NCc2nc3sccn3c21 (stereo not given)  cytotoxicity at 10 µM         3.86%
31  COc1cc(NC2CCS(=O)(=O)C2)ncn1 (stereo not given)  cytotoxicity at 10 µM         7.53%
32                 Cn1ncc(C(=O)N2CCOCC2)c1Cl  cytotoxicity at 10 µM         8.93%
33  O=C(COCCOc1ccccc1)N1CCCC(n2ccnc2)C1 (stereo not given)  cytotoxicity at 10 µM        -19.6%
34  CN1N=C(C(=O)N2CCCC(CCc3c(F)cccc3F)C2)CCC1=O (stereo not given)  cytotoxicity at 10 µM        -7.41%
35    CC(C)c1nnc2n1CCN(Cc1nc(-c3ccoc3)no1)C2  cytotoxicity at 10 µM        -3.69%
36  O=C(c1ncccn1)N1C[C@@H]2CC[C@H](Oc3cccc(F)c3)[C@@H]2C1  cytotoxicity at 10 µM        -27.5%
37  NC(=O)CSCCC(=O)N1CCCC1c1ccsc1 (stereo not given)  cytotoxicity at 10 µM        -13.6%
38  Cc1ccc(C(=O)N2CCN(S(C)(=O)=O)CC2)cc1N1CCNC1=O  cytotoxicity at 10 µM        -5.07%
39  CCn1c(CC2CCN(C(=O)c3cc(CC(C)C)on3)CC2)n[nH]c1=O  cytotoxicity at 10 µM         -2.7%
40  COc1cc(CCC(C)O)c(OC)c2c1OCO2 (stereo not given)  cytotoxicity at 10 µM         6.79%
41  COCCN1CCC(CN(CC2CCCO2)C(=O)CCNC(C)=O)CC1 (stereo not given)  cytotoxicity at 10 µM        -5.99%
42     Cn1ccc(C(=O)NCCOc2ccc3c(c2)OCO3)cc1=O  cytotoxicity at 10 µM         5.97%
43            COc1coc(C(=O)Nc2nc(C)cs2)cc1=O  cytotoxicity at 10 µM        -3.96%
44                   Cc1ccccc1-n1cnc(Cl)c1CO  cytotoxicity at 10 µM         8.48%
45         CS(=O)(=O)CCOc1nc(-c2ccccc2Cl)no1  cytotoxicity at 10 µM        -11.2%
46  CN1CCCN(C(=O)c2cccc(S(=O)(=O)NCC3(C)COC3)c2)CC1  cytotoxicity at 10 µM        -6.63%
47  Cc1ncc2c(n1)CN(CC(O)COc1ccc(C#N)cc1)CC2 (stereo not given)  cytotoxicity at 10 µM         7.45%
48       COCCNC(=O)Nc1ccc(C(=O)N2CCSCC2)cc1C  cytotoxicity at 10 µM        -2.13%
49     Cc1cccc(-c2nc(C)nn2CC(=O)N(C)C2CC2)c1  cytotoxicity at 10 µM        -19.8%

---

Entries annotated with measured cytotoxicity at 10 µM
test: Toxicity liver stage against HepG2, at 10uM; type: cell-based; parameters: test concentration 10 uM, cell line HepG2-A16-CD81EGFP; details: human, HepG2-A16-CD81EGFP cells; read-out: INHIBITION
readout type: cytotoxicity at 10 µM (%)

                                    molecule  result_value
 0  CN1CCN(C(=O)C2CCCc3[nH]ncc32)CC1 (stereo unspecified)         0.247
 1  CC(C)(O)CN1CCN(C(=O)c2ccc(Cl)c3cccnc23)CC1         -9.19
 2  CN(CCO)C(=O)c1coc(CN2CCN(c3ccccc3F)CC2)n1          15.7
 3  Cn1cccc1C(O)CNC(=O)c1ccc(F)c(F)c1 (stereo unspecified)         -1.29
 4  Cc1nnc(SC2CCN(c3sccc3C#N)C2=O)[nH]1 (stereo unspecified)          7.25
 5       CCCOc1ccc(NC(=O)NCCC(=O)N(C)C)cc1Cl         -10.9
 6     CN(Cc1ncc(-c2ccccc2C(=O)O)s1)c1ncccn1          1.69
 7  COc1cccc(NC(=O)NC(C)c2ccc3c(c2)CC(=O)N3)c1 (stereo unspecified)         -3.49
 8       O=C(CSc1ccccc1)N1CCC(N2CCCCC2=O)CC1          11.2
 9  Cc1ccccc1-n1cc(-c2ccnc(N[C@H](CO)C(C)C)n2)cn1          4.43
10  Cc1nc(=O)c(CC(=O)N2C[C@H]3CC[C@@H](C2)N(CC2CCC2)C3)c(C)[nH]1           9.6
